- test.context: rat, in vivo, iv

molecule: CN[C@H](Cc1ccccc1)C(=O)N1CCC[C@H]1C(=O)N[C@@H](CCCNC(=N)N)C(=O)c1nc2c(s1)CCCC2 [Compound 51]
t1/2 (time to half plasma elimination) / min: 17
//
molecule: CN[C@H](CC1CCCCC1)C(=O)N1CCC[C@H]1C(=O)N[C@@H](CCCNC(=N)N)C(=O)c1nc2ccccc2s1 [Compound 29]
t1/2 (time to half plasma elimination) / min: 14
//
molecule: CNC(C(=O)N1CCCC1C(=O)NC(CCCNC(=N)N)C(=O)c1nc2ccccc2s1)c1ccccc1 (stereo not drawn) [Compound 33]
t1/2 (time to half plasma elimination) / min: 18
